# target: UniProt:P10275
# Sequence (P10275 whole entry): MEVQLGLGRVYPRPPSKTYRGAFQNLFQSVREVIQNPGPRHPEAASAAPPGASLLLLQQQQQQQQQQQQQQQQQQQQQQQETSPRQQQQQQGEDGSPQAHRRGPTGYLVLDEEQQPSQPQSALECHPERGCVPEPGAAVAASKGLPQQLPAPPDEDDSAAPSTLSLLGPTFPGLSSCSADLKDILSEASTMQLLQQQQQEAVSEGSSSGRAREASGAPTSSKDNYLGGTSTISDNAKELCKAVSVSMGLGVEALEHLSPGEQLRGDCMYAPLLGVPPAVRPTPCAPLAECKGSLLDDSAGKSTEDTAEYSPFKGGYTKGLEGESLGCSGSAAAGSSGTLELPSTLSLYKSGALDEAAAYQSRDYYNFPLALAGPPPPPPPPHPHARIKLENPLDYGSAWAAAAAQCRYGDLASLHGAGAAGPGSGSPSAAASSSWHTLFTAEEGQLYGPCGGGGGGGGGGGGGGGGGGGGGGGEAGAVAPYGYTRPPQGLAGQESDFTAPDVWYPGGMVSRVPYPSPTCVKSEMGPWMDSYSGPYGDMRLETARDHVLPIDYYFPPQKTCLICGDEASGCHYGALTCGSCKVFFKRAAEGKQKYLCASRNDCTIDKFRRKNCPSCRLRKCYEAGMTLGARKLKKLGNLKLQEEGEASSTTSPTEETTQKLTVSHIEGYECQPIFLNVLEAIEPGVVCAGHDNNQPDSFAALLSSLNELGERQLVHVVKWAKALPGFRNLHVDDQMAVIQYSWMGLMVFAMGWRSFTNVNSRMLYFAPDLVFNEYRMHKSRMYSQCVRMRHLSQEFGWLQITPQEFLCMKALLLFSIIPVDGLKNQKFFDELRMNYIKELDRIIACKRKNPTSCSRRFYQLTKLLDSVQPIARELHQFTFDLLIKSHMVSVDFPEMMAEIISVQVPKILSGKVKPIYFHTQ
# procedureText: Test of transcriptional activity (hAR / ARE-Luc dual-luciferase assay in CHO cells)
# Format: cell-based
# experimentalParameters: EC50 [nM] (mean ± SE), CHO cells with hAR and ARE-Luc, 24 hours; 10 nM DHT = 100%
Counter-ions that a name gives are not always drawn.
recordedEndpoint: EC50 (nM)
Expressed in nM, but write only the number.

- molecule: "N#Cc1ccc(N2C[C@@H](C(=O)Nc3ccc([N+](=O)[O-])cc3)O[C@@H]2C(F)(F)F)cc1C(F)(F)F"
  measurementUnits: "nM"
  EC50: 823
- molecule: "COC(=O)Nc1ccc(NC(=O)[C@@H]2CN(c3ccc(C#N)c(C(F)(F)F)c3)[C@@H](C(F)(F)F)O2)c(Cl)c1"
  measurementUnits: "nM"
  EC50: 27.8
- molecule: "N#Cc1cccc(OC[C@@H]2CN(c3ccc(C#N)c(C(F)(F)F)c3)[C@@H](C(F)(F)F)O2)c1"
  measurementUnits: "nM"
  EC50: 31.5
- molecule: "N#CCC(=O)Nc1ccc(OC[C@@H]2CN(c3ccc(C#N)c(C(F)(F)F)c3)[C@@H](C(F)(F)F)O2)cc1"
  measurementUnits: "nM"
  EC50: 2.81
- molecule: "N#Cc1ccc(N2C[C@@H](C(=O)Nc3ccncc3)O[C@@H]2C(F)(F)F)cc1C(F)(F)F"
  measurementUnits: "nM"
  EC50: 7.18
- molecule: "N#Cc1ccc(N2C[C@@H](COc3ccc(CN)cc3)O[C@@H]2C(F)(F)F)cc1C(F)(F)F [Example 89, hydrochloride]"
  measurementUnits: "nM"
  EC50: 34.2

Now, please, on to the next molecule.
Lookup: Specify EC50 for N#Cc1ccc(NC(=O)[C@@H]2CN(c3ccc(C#N)c(C(F)(F)F)c3)[C@@H](C(F)(F)F)O2)c(F)c1 and stop.
Found: 2.74

Every entry's value here was drawn from patent US9809583B2.
